Tested on: MCF7 breast
Experiment: NCI tumour cell line growth inhibition, 48 h
Measurement Name: TGI

Sample records with TGI:
CCOC(=O)C1C(=O)CC(O)(OCC)C(C(=O)OCC)C1c1ccc(OC)cc1 (stereo unspecified)	> 100 µM
CSC(SC)=C1CC(=O)Nc2ccccc2C1=O	> 100 µM
CCN1CC2=C(N=c3s/c(=C\c4ccc(Cl)cc4)c(=O)n3C2c2ccc(Cl)cc2)/C(=C/c2ccc(Cl)cc2)C1 (stereo unspecified)	> 100 µM
Cc1ccc(Nc2nc(NCCO)c3ccccc3n2)cc1C	16.9 µM
O=C(OCCN=C1c2ccccc2CCc2ccccc21)c1cc([N+](=O)[O-])cc([N+](=O)[O-])c1	> 31.6 µM

Could you share which TGI value was measured for CCNC(=O)C[C@@H]1N=C(c2ccc(Cl)cc2)c2cc(OC)ccc2-n2c(C)nnc21 ? > 100 µM

---

Examples of molecules with documented TGI follow.
Tested on: ACHN renal
Assay: NCI tumour cell line growth inhibition, 48 h

Check out these entries, answers already filled in.
O=C(CCN1CCN(c2cccc(Cl)c2)CC1)N1CCc2c([nH]c3ccccc23)C1c1cccnc1 (stereo not drawn)	21.6 µM
O=C1OC(c2ccco2)=N/C1=C\c1ccc(Cl)c(Cl)c1	> 100 µM
C=C(O)c1ccccc1C#Cc1ccccc1C(=O)OC	> 10 µM

Next, consider the following molecule.
What value of measured TGI is listed for COC(=O)c1ccccc1C1CN=NC12Cc1ccc3ccccc3c1C2=O (stereo not drawn) ? > 100 µM

---

Catalogue of TGI readings, one per entry.
Tested on: NCI-H226 lung
Assay: NCI tumour cell line growth inhibition, 48 h
Report as a plain number; the unit µM is understood.

Cc1c(N2C(=O)/C(=C/C=C/c3ccccc3)N=C2c2ccccc2)c(=O)n(-c2ccccc2)n1C	58.4
CCC1=C(C)/C(=C/c2[nH]c(C)c(C(=O)CCCCC(=O)OC)c2C)N=C1c1ccc[nH]1	51.3
O=C(Nc1ccc(S(=O)(=O)Nc2nccs2)cc1)c1cccnc1Nc1cccc(Cl)c1	98.7
CC(C(=O)N1C(=O)N(C(=O)C(C)C(O)c2ccccc2)C(c2ccccc2)C1c1ccccc1)C(O)c1ccccc1 (centres undefined)	34.3
CSc1ccc2c(cc1=O)[C@@H](NC(C)=O)CCc1cc(O)c(O)c(O)c1-2	33.4

Using the record for CCCCCCCCC[C@@H]1C[C@@H]2CCC3C(C(=O)OC)=C(C)NC(=N1)N32 (some centres undefined) , report its TGI. 29.2

Which TGI is reported for this molecule? O=C(c1ccccc1)c1ccc(C(c2c(O)c3ccccc3oc2=O)c2c(O)c3ccccc3oc2=O)cc1 55

Can you look up the measured TGI of Brc1cccc(/C=C/CN2CCN(CCOC(c3ccccc3)c3ccccc3)CC2)c1 for me? 38.2

Which TGI is reported for this molecule? COc1ccc(CN2C(=O)/C(=C\c3cc(OC)c(OC)c(OC)c3)c3cc(OC)ccc32)cc1 22.8

Query (molecule): Oc1ccc2ccccc2c1C=NCCCN=Cc1c(O)ccc2ccccc12 ; field requested: TGI 12.9

Can you look up the measured TGI of CCc1ccc(-c2nnc(COc3ccc(-c4nc5ccc(C)cc5[nH]4)cc3OC)o2)cc1 for me? 4.28

---

Recorded TGI values for a group of compounds are listed next.
System: A498 renal
Assay: NCI tumour cell line growth inhibition, 48 h

Check out these entries, answers already filled in.
CCNC(=O)C[C@@H]1N=C(c2ccc(Cl)cc2)c2cc(OC)ccc2-n2c(C)nnc21	> 69.3 µM
CCN(CC)c1ccc(/C=C(\C#N)c2nc(N)nc(N3N=C(C)CC3(C)C)n2)cc1	35.2 µM
O=C1C2C(C(=O)N1O)N(Cc1ccccc1)C(=O)N2Cc1ccccc1 (stereo unspecified)	> 100 µM
CCOC(=O)c1nc2cc(N3CCOCC3)c(F)cc2[nH]c1=O	> 100 µM
CCOC(=O)c1c(C)n(Cc2ccccc2)c(=O)c2ccccc2c(=O)c2c(=O)ccc(=O)c1=2	> 100 µM

As a next step, examine the compound that follows.
So what does the record say about TGI for CN1CCCN2CCN(C)CCN(CC1)CC2 ? > 100 µM

---

System: HOP-92 NSCLC
Assay: NCI tumour cell line growth inhibition, 48 h
Measurement Name: TGI

O=C1/C(=C/c2cccc([N+](=O)[O-])c2)COc2ccc(O)c(O)c21	8.22 µM
COc1ccc2[nH]cc(CCNC(C)=O)c2c1	> 100 µM
CC1=C2C(O)C(C(C)C(=O)NCC(C)C)CCC2(C)C=CC1=O (centres undefined)	> 100 µM

Please find the next molecule below.
For the molecule shown here, CCN(CC)CCCN(c1cc(OC)cc2nccnc12)S(=O)(=O)c1ccc(C)cc1 , give the reported TGI. > 100 µM

---

Test system: PC-3 prostate
Test: NCI tumour cell line growth inhibition, 48 h
Measurement Name: TGI

O=[N+]([O-])c1cnc(Sc2ccncn2)c([N+](=O)[O-])c1	29.2 µM

API: value(readout=TGI, system=PC-3 prostate) for record c1ccc(N=C2c3ccccc3CN2c2ccccc2)cc1 > 100 µM

Write down the reported TGI of C[C@]12CC[C@@H]3c4ccc(O)cc4CC[C@H]3[C@@H]1C/C(=C\c1ccc([N+](=O)[O-])cc1)C2=O , test system: PC-3 prostate. > 100 µM

Form field - read-out: TGI; system: PC-3 prostate; submitted item: COc1ccc(OC)c(C2CCc3nc4nc(N)nc(N)c4cc3C2)c1 (stereo unspecified) 11.5 µM

Provide value of TGI for this record tested with PC-3 prostate: NC(=O)NC(=O)c1cnccn1 > 100 µM

Item Nc1c(C(=O)Nc2ccccc2)sc2nc3c(cc12)CCCCCC3 with PC-3 prostate - TGI? > 100 µM

Write down the reported TGI of NCc1ccc(-c2ccc(-c3ccc(-c4ccc(CN)s4)s3)s2)s1 , test system: PC-3 prostate. > 100 µM

Please tell me: TGI of Cc1ccc(-c2c(C#N)c(-c3ccc(Cl)cc3)c(C#N)c(=O)n2NS(=O)(=O)c2ccccc2)cc1 , system PC-3 prostate? > 100 µM

Provide value of TGI for this record tested with PC-3 prostate: COc1c2c(c(OC)c3c1c(=O)c1ccccc1n3C)OCO2 > 100 µM

Query TGI on PC-3 prostate for CN(C)/[N+]([O-])=N/Oc1cc(Nc2cccc(C(=O)O)c2)c([N+](=O)[O-])cc1[N+](=O)[O-] > 100 µM

Write down the reported TGI of CNc1ccccc1C(=O)N/N=C/C=C/c1ccccc1 , test system: PC-3 prostate. > 100 µM

Test system PC-3 prostate; read-out TGI; what value for Cc1ccc(C)c(NC(=O)C(=O)C(c2cnc3ccc([N+](=O)[O-])cc3n2)[N+](=O)[O-])c1 (stereo unspecified) ? > 100 µM

---

System: OVCAR-8 ovarian
Assay: NCI tumour cell line growth inhibition, 48 h
# TGI per record follows

Before answering, review these 3 worked examples.
CC/C(=N\NC(=O)c1cccnc1)c1ccc2c(c1)OCCO2	> 100 µM
C/C(=N\NC(=S)N1CCCCCC1)c1nccnc1C	> 100 µM
OC1(c2ccccc2)CC2CCC(C1)N2CCc1ccccc1 (stereo unspecified)	> 100 µM

State the recorded TGI for this entry: NC(=S)/N=C/c1c(O)c2ccccc2oc1=O > 100 µM

Recorded TGI of CCn1c(=O)c(-c2ccn[nH]2)cc2c(C)nc(N)nc21 , please. 61.7 µM

Field request: TGI | item: O=C(Cc1nc2ccccc2s1)C(=O)Nc1ccc(Cl)cc1 > 100 µM

---

System: IGROV1 ovarian
Assay: NCI tumour cell line growth inhibition, 48 h
Measurement Name: TGI

CC(C)(C)[Si](C)(C)OCC1CCC(n2cnc3c(NC(=O)c4ccccc4)ncnc32)O1 (stereo not given)	32.7 µM
CCCN1C(=O)C/C(=C\C(C)=O)Nc2ccccc21	> 100 µM
CSC(SC)=C1CC(=O)Nc2ccccc2C1=O	> 100 µM
COc1c(CC=C(C)C)c(O)c(C(CC(C)C)c2c(O)c(C(C)=O)c(O)c3c2OC(C(C)(C)O)C3)c(O)c1C(C)=O (stereo not given)	> 12.5 µM

Query molecule follows.
Please state recorded TGI (tested on IGROV1 ovarian) of O=C(NN=C1CCN(Cc2ccccc2)CC1)C(O)(c1ccccc1)c1ccccc1 > 100 µM

---

System: MDA-MB-231 breast
Assay: NCI tumour cell line growth inhibition, 48 h
Measurement Name: TGI

These solved cases illustrate the format of a correct answer.
CN(C)c1nc(N(C)C)nc(N(C)C)n1	> 150 µM
CNC(=S)/C(=N\Nc1nc[nH]c1C(N)=O)C(N)=S	> 24 µM
O=C(c1ccccc1)c1ccc(C(c2c(O)c3ccccc3oc2=O)c2c(O)c3ccccc3oc2=O)cc1	> 71.4 µM

Could you share which TGI value was measured for OC1(c2ccccc2)CC2CCC(C1)N2CCc1ccccc1 (stereo not given) ? > 100 µM

I have this compound here, CCN1C(=O)C/C(=C\C(C)=O)Nc2ccccc21 , and I need its recorded TGI. > 100 µM
